- TARGET OF ASSAY: human ANO6 (Homo sapiens, UniProt Q4KMQ2)
- Construct: expressed in transfected cells
- Sequence (Q4KMQ2 1-931 isoform Q4KMQ2-2): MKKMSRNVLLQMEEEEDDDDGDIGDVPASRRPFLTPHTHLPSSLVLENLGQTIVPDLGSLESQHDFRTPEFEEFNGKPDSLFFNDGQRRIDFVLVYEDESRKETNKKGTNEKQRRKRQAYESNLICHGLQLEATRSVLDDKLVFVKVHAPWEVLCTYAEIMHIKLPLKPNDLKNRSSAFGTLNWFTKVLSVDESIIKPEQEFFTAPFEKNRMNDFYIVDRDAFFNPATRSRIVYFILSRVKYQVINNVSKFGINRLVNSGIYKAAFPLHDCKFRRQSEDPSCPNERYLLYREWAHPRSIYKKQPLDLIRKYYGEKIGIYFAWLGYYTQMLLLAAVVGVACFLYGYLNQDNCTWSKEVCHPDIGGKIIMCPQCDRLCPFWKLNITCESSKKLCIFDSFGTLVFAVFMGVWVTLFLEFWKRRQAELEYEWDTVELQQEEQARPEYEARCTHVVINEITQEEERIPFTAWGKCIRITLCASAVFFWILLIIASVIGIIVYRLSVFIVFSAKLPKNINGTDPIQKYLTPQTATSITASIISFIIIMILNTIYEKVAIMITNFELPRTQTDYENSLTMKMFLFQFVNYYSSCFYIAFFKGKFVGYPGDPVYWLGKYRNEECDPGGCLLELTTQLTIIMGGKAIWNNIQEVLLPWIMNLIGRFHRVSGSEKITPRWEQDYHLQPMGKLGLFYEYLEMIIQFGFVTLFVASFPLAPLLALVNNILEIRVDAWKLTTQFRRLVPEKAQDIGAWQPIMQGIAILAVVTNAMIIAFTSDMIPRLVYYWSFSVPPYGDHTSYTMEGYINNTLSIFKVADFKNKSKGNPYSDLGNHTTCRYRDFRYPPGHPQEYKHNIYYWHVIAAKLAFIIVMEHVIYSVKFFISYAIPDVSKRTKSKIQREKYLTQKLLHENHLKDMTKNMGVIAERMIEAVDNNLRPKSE
- EXPERIMENT DESCRIPTION: YFP quenching assay (ANO6 ion channel activity)
- Format: cell-based
- CONDITION PARAMETERS: test compound 1 μM, 10 μM ionomycin, read-out: Inhibition Level 1 μM

>  <COMPOUND>
Cc1ccc(CNC(=O)c2cccc(Nc3ccc(CC(C)C)nn3)c2)o1 [Compound 61]

>  <inhibition at 1 µM>
< 30%

$$$$
>  <COMPOUND>
CNC(=O)c1cccc(Nc2ccc(-c3ccccc3)nn2)c1 [Compound 41]

>  <inhibition at 1 µM>
30 to 60%

$$$$
>  <COMPOUND>
O=C(NCCN1CCCCC1)c1cccc(Nc2ncc(-c3ccccc3)cn2)c1 [Compound 93]

>  <inhibition at 1 µM>
< 30%

$$$$
>  <COMPOUND>
Cc1ccc(CNC(=O)c2cccc(Nc3ncc(-c4cccc(C(=O)O)c4)cn3)c2)o1 [Compound 108]

>  <inhibition at 1 µM>
< 30%

$$$$
>  <COMPOUND>
CC(C)CCNC(=O)c1cccc(Nc2ccc(-c3ccc(F)cc3)nn2)c1 [Compound A13]

>  <inhibition at 1 µM>
≥ 60%

$$$$
>  <COMPOUND>
CC(C)CCNC(=O)c1cccc(Nc2ccc(-c3ccccc3)nn2)c1 [Compound A70]

>  <inhibition at 1 µM>
≥ 60%

$$$$
>  <COMPOUND>
O=C(NCC1CCCO1)c1cccc(Nc2ncc(-c3cccc(F)c3)cn2)c1 (stereo not drawn) [Compound A83]

>  <inhibition at 1 µM>
30 to 60%

$$$$
>  <COMPOUND>
CC(CCc1ccccc1)NC(=O)c1cccc(Nc2ccc(-c3ccccc3)nn2)c1 (stereo not drawn) [Compound A58]

>  <inhibition at 1 µM>
≥ 60%

$$$$
>  <COMPOUND>
O=C(NCCCN1CCOCC1)c1cccc(Nc2ccc(-c3ccccc3)nn2)c1 [Compound 15]

>  <inhibition at 1 µM>
< 30%

$$$$
>  <COMPOUND>
Cc1ccc(CNC(=O)c2cccc(Nc3ncc(-c4cccs4)cn3)c2)o1 [Compound 110]

>  <inhibition at 1 µM>
30 to 60%

$$$$
>  <COMPOUND>
CCCCNC(=O)c1cccc(Nc2ccc(-c3ccc(F)cc3)nn2)c1 [Compound A10]

>  <inhibition at 1 µM>
≥ 60%

$$$$
>  <COMPOUND>
Cc1ccc(CNC(=O)c2cccc(Nc3ncc(-c4cnc5ccccc5c4)cn3)c2)o1 [Compound 104]

>  <inhibition at 1 µM>
< 30%

$$$$
>  <COMPOUND>
O=C(NCC1CCCC1)c1cccc(Nc2ccc(-c3ccccc3)nn2)c1 [Compound 33]

>  <inhibition at 1 µM>
≥ 60%

$$$$
>  <COMPOUND>
O=C(NCCC1CCCCC1)c1cccc(Nc2ncc(-c3cccc(F)c3)cn2)c1 [Compound 80]

>  <inhibition at 1 µM>
≥ 60%

$$$$
>  <COMPOUND>
O=C(NCCC1=CCCCC1)c1cccc(Nc2ccc(-c3ccccc3)nn2)c1 [Compound A40]

>  <inhibition at 1 µM>
≥ 60%

$$$$
>  <COMPOUND>
O=C(NCc1ccc(Cl)c(Cl)c1)c1cccc(Nc2ccc(-c3ccccc3)nn2)c1 [Compound 36]

>  <inhibition at 1 µM>
≥ 60%

$$$$
>  <COMPOUND>
Cc1ccc(CNC(=O)c2cccc(Nc3ccc(CCc4ccc(F)cc4)nn3)c2)o1 [Compound 77]

>  <inhibition at 1 µM>
< 30%

$$$$
>  <COMPOUND>
O=C(NCc1ccc2c(c1)OCO2)c1cccc(Nc2ccc(-c3ccc(F)cc3)nn2)c1 [Compound A17]

>  <inhibition at 1 µM>
30 to 60%

$$$$

---

- TARGET OF ASSAY: human ANO6 (Homo sapiens, UniProt Q4KMQ2)
- Construct: expressed in transfected cells
- EXPERIMENT DESCRIPTION: LACT C2 assay (phosphatidylserine scramblase function assay)
- Type: cell-based
- CONDITION PARAMETERS: test compound 100 nM, FRT cells expressing human ANO6, 10 μM ionomycin, read-out: Inhibition Level 100 nM

>  <COMPOUND>
O=C(Nc1cccc(F)c1)c1cccc(NC2CCC(c3ccccc3)CC2)c1 (single isomer, unassigned)

>  <inhibition at 0.1 µM>
< 30%

$$$$
>  <COMPOUND>
N#CC1(NC(=O)c2cccc(Nc3ccc(-c4ccccc4)nn3)c2)CC1

>  <inhibition at 0.1 µM>
< 30%

$$$$
>  <COMPOUND>
O=C(N[C@@H]1C[C@H]1c1ccccc1)c1cccc(Nc2ccc(-c3cncnc3)cc2)c1

>  <inhibition at 0.1 µM>
< 30%

$$$$
>  <COMPOUND>
O=C(NC1(CO)CC1)c1cccc(Nc2ccc(-c3cccc(F)c3)nn2)c1

>  <inhibition at 0.1 µM>
< 30%

$$$$
>  <COMPOUND>
O=C(NCc1ccc(Br)cc1)c1cccc(Nc2ccc(-c3ccccc3)nn2)c1

>  <inhibition at 0.1 µM>
< 30%

$$$$
>  <COMPOUND>
O=C(Nc1cccc(F)c1)c1cccc(Nc2ccc(-c3cccc(F)c3)cn2)c1

>  <inhibition at 0.1 µM>
≥ 60%

$$$$
>  <COMPOUND>
O=C(O)c1cccc(CCNC(=O)c2cccc(Nc3ncc(-c4cccc(F)c4)cn3)c2)c1

>  <inhibition at 0.1 µM>
< 30%

$$$$
>  <COMPOUND>
O=C(NCc1ccc(F)c(F)c1F)c1cccc(Nc2ncc(-c3cccc(F)c3)cn2)c1

>  <inhibition at 0.1 µM>
< 30%

$$$$
>  <COMPOUND>
CN(CCCNC(=O)c1cccc(Nc2ccc(-c3ccccc3)nn2)c1)Cc1ccccc1

>  <inhibition at 0.1 µM>
< 30%

$$$$
>  <COMPOUND>
O=C(NCc1ccc(Cl)c(Cl)c1)c1cccc(Nc2ccc(-c3ccccc3)nn2)c1

>  <inhibition at 0.1 µM>
30 to 60%

$$$$
>  <COMPOUND>
CC(NC(=O)c1cccc(Nc2ccc(-c3ccccc3)nn2)c1)c1ccc(F)cc1 (stereo not drawn)

>  <inhibition at 0.1 µM>
< 30%

$$$$
>  <COMPOUND>
O=C(NC1CCCC1)c1cccc(Nc2ccc(-c3ccc(F)cc3)nn2)c1

>  <inhibition at 0.1 µM>
< 30%

$$$$
>  <COMPOUND>
COc1ccc(CNC(=O)c2cccc(Nc3ccc(-c4ccccc4)nn3)c2)cc1

>  <inhibition at 0.1 µM>
< 30%

$$$$
>  <COMPOUND>
O=C(N[C@@H]1C[C@H]1c1ccc(Cl)c(F)c1)c1cccc(Nc2ccc(-c3ccccc3)nn2)c1

>  <inhibition at 0.1 µM>
30 to 60%

$$$$
>  <COMPOUND>
O=C(NCCC1CCCCC1)c1cccc(Nc2ncc(-c3ccccc3)cn2)c1

>  <inhibition at 0.1 µM>
30 to 60%

$$$$
>  <COMPOUND>
O=C(N[C@@H]1C[C@H]1c1ccccc1)c1ccnc(Nc2ccc(-c3ccccc3)cn2)c1

>  <inhibition at 0.1 µM>
< 30%

$$$$
>  <COMPOUND>
O=C(Nc1cccc(F)c1)c1cccc(Nc2ccc(-c3ncccn3)cc2)c1

>  <inhibition at 0.1 µM>
30 to 60%

$$$$
>  <COMPOUND>
O=C(NCCN1CC2CCC1C2)c1cccc(Nc2ncc(-c3ccccc3)cn2)c1 (stereo not drawn)

>  <inhibition at 0.1 µM>
< 30%

$$$$
>  <COMPOUND>
O=C(NCc1ccccc1)c1cccc(Nc2ccc(-c3ccccc3)nn2)c1

>  <inhibition at 0.1 µM>
< 30%

$$$$
>  <COMPOUND>
COc1cc(CNC(=O)c2cccc(Nc3ccc(-c4ccccc4)nn3)c2)ccc1F

>  <inhibition at 0.1 µM>
< 30%

$$$$
>  <COMPOUND>
O=C(NCCC12CC3CC(CC(C3)C1)C2)c1cccc(Nc2ccc(-c3cccc(F)c3)cn2)c1

>  <inhibition at 0.1 µM>
≥ 60%

$$$$
>  <COMPOUND>
CCCCNC(=O)c1cccc(Nc2ccc(-c3ccc(F)cc3)nn2)c1

>  <inhibition at 0.1 µM>
< 30%

$$$$
>  <COMPOUND>
Cc1ccc(C(C)NC(=O)c2cccc(Nc3ccc(-c4ccccc4)nn3)c2)cc1 (stereo not drawn)

>  <inhibition at 0.1 µM>
< 30%

$$$$
>  <COMPOUND>
Cc1ccccc1CNC(=O)c1cccc(Nc2ncc(-c3cccc(F)c3)cn2)c1

>  <inhibition at 0.1 µM>
< 30%

$$$$
>  <COMPOUND>
O=C(NCc1ccc(Br)cc1)c1cccc(Nc2ccc(-c3ccc(F)cc3)nn2)c1

>  <inhibition at 0.1 µM>
< 30%

$$$$
>  <COMPOUND>
O=C(N[C@@H]1C[C@H]1c1ccccc1)c1cccc(Nc2ccc(-c3ncccn3)cc2)c1

>  <inhibition at 0.1 µM>
< 30%

$$$$
>  <COMPOUND>
O=C(NCCC1CCCCC1)c1cccc(Nc2ncc(-c3cccc(F)c3)cn2)c1

>  <inhibition at 0.1 µM>
≥ 60%

$$$$
>  <COMPOUND>
CCN1CCN(c2cc(F)ccc2CNC(=O)c2cccc(Nc3ccc(-c4ccccc4)nn3)c2)CC1

>  <inhibition at 0.1 µM>
30 to 60%

$$$$
>  <COMPOUND>
Cc1ccc([C@@H]2C[C@H]2NC(=O)c2cccc(Nc3ccc(-c4ccccc4)nn3)c2)cc1

>  <inhibition at 0.1 µM>
30 to 60%

$$$$
>  <COMPOUND>
O=C(N[C@@H]1C[C@H]1c1ccc(Cl)c(F)c1)c1cccc(Nc2ncc(-c3cccc(F)c3)cn2)c1

>  <inhibition at 0.1 µM>
< 30%

$$$$
>  <COMPOUND>
O=C(Nc1cccc(F)c1)c1cccc(NC2CCC(c3ccccc3)C2)c1 (stereo not drawn)

>  <inhibition at 0.1 µM>
< 30%

$$$$
>  <COMPOUND>
CN1CCC(CNC(=O)c2cccc(Nc3ccc(-c4cccc(F)c4)cn3)c2)C1 (stereo not drawn)

>  <inhibition at 0.1 µM>
< 30%

$$$$
>  <COMPOUND>
Cc1ccc(CNC(=O)c2cccc(Nc3ccc(-c4ccc(F)cc4)nn3)c2)cc1

>  <inhibition at 0.1 µM>
< 30%

$$$$
